# Test system: RARa homodimer (NR concentration 270 nM)
# Protocol Summary: PBM binding z-score (relative to random genomic background probes); higher = stronger binding; sequences stand for … in GC…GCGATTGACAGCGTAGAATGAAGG
Answer not met if PBM binding z-score is under -0.5, and met if it is -0.5 or more.

Example entries and their recorded answers appear below.
                      sequence_string  label_class
0  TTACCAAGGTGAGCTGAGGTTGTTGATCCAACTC      not met
1  GGAACGAGGGCAAAGTTGATAGAATCTGTCGACG          met
2  ACTATTAGTTGACTTAGGGCAACCCATACGACGC          met

Input line: Record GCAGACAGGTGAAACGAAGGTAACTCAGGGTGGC ; criterion: PBM binding z-score no lower than -0.5. Met?
Output line: not met

Input line: Record CCGACTGGGGCATAAGCTTACCATAAGCCAGCCC ; criterion: PBM binding z-score no lower than -0.5. Met?
Output line: not met

Input line: Record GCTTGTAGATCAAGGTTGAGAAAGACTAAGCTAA ; criterion: PBM binding z-score no lower than -0.5. Met?
Output line: met

====

The entries below are paired with their reported PBM binding z-score.
# System: PPARg:RXRa DBDmut IVT, anti-RXR (DBD mutation: RXRa K156A/R161A, NR concentration 270 nM, RXRa partner concentration 90 nM)
# Protocol Summary: PBM binding z-score (relative to random genomic background probes); higher = stronger binding; sequences stand for … in GC…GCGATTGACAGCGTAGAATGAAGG

>>> print(df.to_string())
                      sequence_string  test_result
0  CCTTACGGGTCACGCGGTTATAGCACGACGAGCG         4.11

Entry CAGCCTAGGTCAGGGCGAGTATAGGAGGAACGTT , PBM binding z-score reported as 1.68

Entry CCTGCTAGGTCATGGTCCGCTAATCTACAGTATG , PBM binding z-score reported as 4.12

Entry TCTTGTAGATCATCAGGTTAAGAAAGCTGGCCAA , PBM binding z-score reported as 2.18

Entry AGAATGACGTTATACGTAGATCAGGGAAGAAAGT , PBM binding z-score reported as -1.31

Entry TGTAGCAGGCCAGAGGGTCACTCAAGAGGTACGG , PBM binding z-score reported as -1.03

Entry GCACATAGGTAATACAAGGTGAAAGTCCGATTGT , PBM binding z-score reported as 0.57

Entry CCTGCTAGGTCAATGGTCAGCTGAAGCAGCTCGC , PBM binding z-score reported as 4.48

====

# Test system: PPARg:RXRa 30nM:10nM, anti-RXR (NR concentration 30 nM, RXRa partner concentration 10 nM)
# Protocol Summary: PBM binding z-score (relative to random genomic background probes); higher = stronger binding; sequences stand for … in GC…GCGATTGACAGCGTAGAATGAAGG
Category | rule: reported PBM binding z-score within range, see A = under 0.3, B = from 0.3 up to 2, C = 2 and over

Example entries and their recorded answers appear below.
In [3]: df
Out[3]:
                      sequence_string  label_class
0  ATCGAAAGGTCGTGGGGTGAGTATACAGAAAGGC            C
1  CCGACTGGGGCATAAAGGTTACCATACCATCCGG            C
2  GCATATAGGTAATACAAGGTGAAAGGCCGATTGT            B

Input line: Determine which band this sequence sits in: CCTACTGGGCCATCAGGTCATTGATATCAACGTT
Output line: B

Input line: Determine which band this sequence sits in: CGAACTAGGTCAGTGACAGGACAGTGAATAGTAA
Output line: B

Input line: Determine which band this sequence sits in: CTCGAAAGGTCGGTTGAGGTGAGTAGACGGATAA
Output line: A
